- Tested on: TLR2 induced IL-6 in peripheral blood mononuclear cells (PBMCs)
- assayOverview: PBMC TLR2 Induced IL-6 Assay
- Type: cell-based, human
- recordedConditions: Homo sapiens, PBMC, human PBMCs, lipoteichoic acid stimulated, IL-6 by ELISA; read-out: Cell EC50
measurementName: pEC50
Note on pEC50: it is the negative log10 of concentration, concentration in mol/L.

INPUT: Can you share its pEC50? I mean this compound: CC(C)Nc1cc(-n2ccc3cc(C#N)cnc32)ncc1C(=O)NCCC1(O)CCCC1 [Example 487]
OUTPUT: 7.47

INPUT: Can you share its pEC50? I mean this compound: CC(C)(O)[C@H](F)CNC(=O)c1cnc(-n2ncc3cc(F)cnc32)cc1NC1CCCOC1 (some centres unmarked) [Example 547]
OUTPUT: 7.19

INPUT: Can you share its pEC50? I mean this compound: CC(C)(O)[C@H](F)CNC(=O)c1cnc(-n2ncc3cc(C#N)cnc32)cc1N[C@H]1CC[C@@](C)(O)CC1 [Example 607]
OUTPUT: 6.48

INPUT: Can you share its pEC50? I mean this compound: CC(O)CCNc1cc(-n2ncc3cc(C#N)cnc32)ncc1C(=O)NC[C@@H](F)C(C)(C)O (single isomer, unassigned) [Example 573]
OUTPUT: 6.14

INPUT: Can you share its pEC50? I mean this compound: CC(C)(O)[C@H](F)CNC(=O)c1cnc(-n2ncc3cc(C#N)cnc32)cc1Nc1ccc2ncsc2c1 [Example 524]
OUTPUT: 6.88

INPUT: Can you share its pEC50? I mean this compound: CC(CCF)Nc1cc(-n2ccc3cc(C#N)cnc32)ncc1C(=O)NC[C@@H](F)C(C)(C)O (single isomer, unassigned) [Example 426]
OUTPUT: 7.29

INPUT: Can you share its pEC50? I mean this compound: CC(C)(O)[C@H](F)CNC(=O)c1cnc(-n2ccc3cc(C#N)cnc32)cc1NC1CCN(S(C)(=O)=O)CC1 [Example 463]
OUTPUT: 7.64

INPUT: Can you share its pEC50? I mean this compound: CS(=O)(=O)NCCNC(=O)c1cnc(-n2ccc3cc(C#N)cnc32)cc1NC1CCOCC1 [Example 479]
OUTPUT: 6.84

INPUT: Can you share its pEC50? I mean this compound: CC(C)(O)[C@H](F)CNC(=O)c1cnc(-n2ncc3cc(C(N)=O)cnc32)cc1Nc1ccc2ncoc2c1 [Example 525]
OUTPUT: 6.60

INPUT: Can you share its pEC50? I mean this compound: CC(C)(O)[C@H](F)CNC(=O)c1cnc(-n2ncc3cc(C#N)cnc32)cc1NC1CN(c2ncc(F)cn2)C1 [Example 539]
OUTPUT: 6.59

INPUT: Can you share its pEC50? I mean this compound: CC(C)(O)[C@H](F)CNC(=O)c1cnc(-n2ccc3cc(C#N)cnc32)cc1NC1COCC1(F)F (single isomer, unassigned) [Example 485]
OUTPUT: 6.70

INPUT: Can you share its pEC50? I mean this compound: CC(=O)N1CC(Nc2cc(-n3ccc4cc(C#N)cnc43)ncc2C(=O)NC[C@@H](F)C(C)(C)O)C1 [Example 468]
OUTPUT: 6.89

INPUT: Can you share its pEC50? I mean this compound: COc1cccc(Nc2cc(-n3ccc4cc(C#N)cnc43)ncc2C(=O)NC[C@@H](F)C(C)(C)O)c1 [Example 418]
OUTPUT: 7.19

INPUT: Can you share its pEC50? I mean this compound: CC(C)Nc1cc(-n2ccc3cc(C#N)ccc32)ncc1C(=O)N[C@H]1CC[C@H](C(C)(C)O)CC1 [Example 414]
OUTPUT: 6.73

Sourced from patent US9169252B2
